- TEST NAME: Ratio of drug uptake in brain to blood in C57BL/6 mouse at 2 umol/kg, iv dosed in N-methyl pyrrolidone/blank plasma (10:90 v/v) measured 1 hr post dosing by LC/MS/MS analysis
- Assay type: ADME, organism-based
VALUE TYPE: Kp at 1 h
No unit in the answer, please; the number alone is enough.

Ask: GET /values?readout=Kp at 1 h&item= CC(C)(C)c1cccc(CN[C@H]2CS(=O)(=O)C[C@@H](Cc3cc(F)c(N)c(OCC(F)(F)F)c3)[C@@H]2O)c1
Reply: 1.8

* * *

- System: Mus musculus
- TEST NAME: Antialzheimer activity in APP51/16 transgenic mouse expressing human APP51/16Npa and mouse Thy1 assessed as reduction in amyloid beta (1 to 40) reduction at 180 umol/kg, po measured 4 hrs post dosing
- Format: functional
- Parameters: scale not given: the % may be the effect or the level left
VALUE TYPE: Activity (%)
Write down the numeric answer in % and omit the unit.

Please review the entries below; each comes with its answer.
| MOLECULE SMILES | Activity [%] |
| --- | --- |
| COC[C@@H](Oc1cc(C[C@@H]2CS(=O)(=O)C[C@H](NCc3cccc(C(C)(C)C)c3)[C@H]2O)cc(F)c1N)C(F)(F)F | 31 |
| CC(C)(C)c1cccc(CN[C@H]2CS(=O)(=O)C[C@@H](Cc3cc(F)c(N)c(OCC(F)F)c3)[C@@H]2O)c1 | 18 |
| CC(C)(C)c1cccc(CN[C@H]2CS(=O)(=O)C[C@@H](Cc3cc(F)c(N)c(OCC(F)(F)F)c3)[C@@H]2O)c1 | 31 |

Ask: GET /values?readout=Activity&item= CC(C)(C)c1cccc(CN[C@H]2CS(=O)(=O)C[C@@H](Cc3cc(F)c(N)c(OC(C(F)(F)F)C(F)(F)F)c3)[C@@H]2O)c1
Reply: 6

Ask: GET /values?readout=Activity&item= CCOc1cc(C[C@@H]2CS(=O)(=O)C[C@H](NCc3cccc(C(C)(C)C)c3)[C@H]2O)cc(F)c1N
Reply: 34

* * *

- TEST NAME: Drug uptake in C57BL/6 mouse blood at 6 umol/kg, po dosed in HS15/propylenglycol/citrate buffer, pH 4.75, 50 mM (10/5/85, v/v/v) measured 1 hr post dosing by LC/MS/MS analysis
- Type: ADME, organism-based
- TEST PARAMETERS: read-out: Drug uptake
VALUE TYPE: concentration at 1 h (nM)
Write down the numeric answer in nM and omit the unit.

Ask: GET /values?readout=concentration at 1 h&item= CC(C)(C)c1cccc(CN[C@H]2CS(=O)(=O)C[C@@H](Cc3cc(F)c(N)c(OC(C(F)(F)F)C(F)(F)F)c3)[C@@H]2O)c1
Reply: 60

* * *

- ASSAY SYSTEM: Beta-secretase 1 (Homo sapiens)
- Sequence (P56817 whole entry): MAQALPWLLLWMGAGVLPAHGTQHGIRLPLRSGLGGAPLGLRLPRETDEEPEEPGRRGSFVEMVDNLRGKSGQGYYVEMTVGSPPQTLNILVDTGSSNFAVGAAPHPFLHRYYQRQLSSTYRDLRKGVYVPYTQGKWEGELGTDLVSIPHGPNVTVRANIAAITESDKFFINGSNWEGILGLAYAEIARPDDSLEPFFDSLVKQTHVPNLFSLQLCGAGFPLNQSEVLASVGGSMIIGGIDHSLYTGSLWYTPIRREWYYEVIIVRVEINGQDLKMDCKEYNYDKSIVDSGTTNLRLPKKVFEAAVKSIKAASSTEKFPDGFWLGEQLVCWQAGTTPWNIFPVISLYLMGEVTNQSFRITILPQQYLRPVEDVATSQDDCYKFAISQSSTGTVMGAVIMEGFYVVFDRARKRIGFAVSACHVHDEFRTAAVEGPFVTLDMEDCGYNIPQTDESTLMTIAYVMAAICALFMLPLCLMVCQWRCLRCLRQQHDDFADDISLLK
Each item that follows carries a reported pIC50.
// pIC50 is dimensionless: -log10 of concentration (M)

| COMPOUND | VALUE TYPE | NUMERIC VALUE |
| --- | --- | --- |
| CC(C)(C)c1cccc(CN[C@H]2CS(=O)(=O)C[C@@H](Cc3ccc(N)c(Br)c3)[C@@H]2O)c1 | pIC50 | 6.85 |

For the next question, use this compound.
Ask: What pIC50 appears in the records for this compound with Beta-secretase 1 (Homo sapiens)? CC(C)(C)c1cccc(CN[C@H]2CS(=O)(=O)C[C@@H](Cc3ccc(N)c(OC(F)(F)F)c3)[C@@H]2O)c1 (racemic)
Reply: 6.89

* * *

// pIC50 collected for Cytochrome P450 3A4 (Homo sapiens, UniProt P08684)
// pIC50 is dimensionless: -log10 of concentration (M)

| MOLECULE SMILES | VALUE TYPE | NUMERIC VALUE |
| --- | --- | --- |
| CC(C)(C)c1cccc(CN[C@H]2CS(=O)(=O)C[C@@H](Cc3cc(F)c(N)c(OC(C(F)(F)F)C(F)(F)F)c3)[C@@H]2O)c1 | pIC50 | 6.52 |

Ask: GET /values?readout=pIC50&item= Nc1c(F)cc(C[C@@H]2CS(=O)(=O)C[C@H](NCc3cccc(OC(F)(F)F)c3)[C@H]2O)cc1OC(C(F)(F)F)C(F)(F)F
Reply: 5.04

* * *

- Test system: MDR1 (human)
- TEST NAME: Apparent permeability across MDCK cells expressing human MDR1 at 5 uM after 2 hrs by LC-MS analysis
- Format: ADME, cell-based, Canis lupus familiaris
- TEST PARAMETERS: dog
VALUE TYPE: Papp at 2 h, 5 µM (×10⁻⁶ cm/s)
Write down the numeric answer in ×10⁻⁶ cm/s and omit the unit.

| MOLECULE | Papp at 2 h, 5 µM / ×10⁻⁶ cm/s |
| --- | --- |
| CC(C)(C)c1cccc(CN[C@H]2CS(=O)(=O)C[C@@H](Cc3cc(F)c(N)c(OC(C(F)(F)F)C(F)(F)F)c3)[C@@H]2O)c1 | 3 |
| CC(C)(C)c1cccc(CN[C@H]2CS(=O)(=O)C[C@@H](Cc3ccc(N)c(Br)c3)[C@@H]2O)c1 | 13 |
| CCOC[C@@H](Oc1cc(C[C@@H]2CS(=O)(=O)C[C@H](NCc3cccc(C(C)(C)C)c3)[C@H]2O)cc(F)c1N)C(F)(F)F | 11 |

Ask: What Papp at 2 h, 5 µM appears in the records for this molecule with MDR1 (human)? CC(F)(F)c1cccc(CN[C@H]2CS(=O)(=O)C[C@@H](Cc3cc(F)c(N)c(Br)c3)[C@@H]2O)c1
Reply: 28

Ask: What Papp at 2 h, 5 µM appears in the records for this molecule with MDR1 (human)? COCCOC[C@@H](Oc1cc(C[C@@H]2CS(=O)(=O)C[C@H](NCc3cccc(C(C)(C)C)c3)[C@H]2O)cc(F)c1N)C(F)(F)F
Reply: 12

Ask: What Papp at 2 h, 5 µM appears in the records for this molecule with MDR1 (human)? CC(C)(C)c1cccc(CN[C@H]2CS(=O)(=O)C[C@@H](Cc3cc(F)c(N)c(C[C@H](O)C(F)(F)F)c3)[C@@H]2O)c1
Reply: 13

Ask: What Papp at 2 h, 5 µM appears in the records for this molecule with MDR1 (human)? CCCN1CCC[C@@]12CCN([C@@H](C)C(=O)N[C@@H](Cc1ccccc1)[C@H](O)CNCc1cccc(C(C)C)c1)C2=O
Reply: 11

Ask: What Papp at 2 h, 5 µM appears in the records for this molecule with MDR1 (human)? CC(C)(C)c1cccc(CN[C@H]2CS(=O)(=O)C[C@@H](Cc3cc(F)c(N)c(-c4cc[nH]n4)c3)[C@@H]2O)c1 (racemic)
Reply: 20

Ask: What Papp at 2 h, 5 µM appears in the records for this molecule with MDR1 (human)? CC(C)(C)c1cccc(CN[C@H]2CS(=O)(=O)C[C@@H](Cc3ccc(N)c(F)c3)[C@@H]2O)c1
Reply: 21

Ask: What Papp at 2 h, 5 µM appears in the records for this molecule with MDR1 (human)? CC(C)(C)c1cccc(CN[C@H]2CS(=O)(=O)C[C@@H](Cc3ccc4[nH]ncc4c3)[C@@H]2O)c1 (racemic)
Reply: 23

Ask: What Papp at 2 h, 5 µM appears in the records for this molecule with MDR1 (human)? COCCOc1cc(C[C@@H]2CS(=O)(=O)C[C@H](NCc3cccc(C(C)(C)C)c3)[C@H]2O)cc(F)c1N
Reply: 25

* * *

Each item that follows carries a reported pIC50.
- ASSAY SYSTEM: Cathepsin D (Homo sapiens)
- Sequence (P07339 65-162 limits assumed): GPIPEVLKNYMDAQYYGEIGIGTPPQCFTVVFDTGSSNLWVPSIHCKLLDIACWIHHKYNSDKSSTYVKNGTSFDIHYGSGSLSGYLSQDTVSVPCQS
- Sequence (P07339 169-412 limits assumed): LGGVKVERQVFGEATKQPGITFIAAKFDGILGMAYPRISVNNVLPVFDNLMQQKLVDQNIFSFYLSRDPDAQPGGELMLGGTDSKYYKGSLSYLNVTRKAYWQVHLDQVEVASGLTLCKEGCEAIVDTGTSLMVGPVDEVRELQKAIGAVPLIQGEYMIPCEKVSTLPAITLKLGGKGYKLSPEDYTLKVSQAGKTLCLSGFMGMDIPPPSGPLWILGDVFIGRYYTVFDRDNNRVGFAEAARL
- TEST NAME: Inhibition of human recombinant CatD using Mca-GKPILFFRLK(DNP)-dR-NH2 as substrate after 1 hr by fluorescence analysis
// pIC50 is dimensionless: -log10 of concentration (M)

Please review the entries below; each comes with its answer.
| COMPOUND | pIC50 |
| --- | --- |
| CCOc1cc(C[C@@H]2CS(=O)(=O)C[C@H](NCc3cccc(C(C)(C)C)c3)[C@H]2O)cc(F)c1N | 5.99 |
| CC(C)(C)c1cccc(CN[C@H]2CS(=O)(=O)C[C@@H](Cc3cc(F)c4c(c3)C3(CCC(F)(F)CC3)CN4)[C@@H]2O)c1 (racemic) | 5.45 |
| CC(C)(C)c1cccc(CN[C@H]2CS(=O)(=O)C[C@@H](Cc3cc(F)c(N)c(CCC(F)(F)F)c3)[C@@H]2O)c1 | 6.01 |

Ask: GET /values?readout=pIC50&item= CCCc1cc(C[C@@H]2CS(=O)(=O)C[C@H](NCc3cccc(C(C)(C)C)c3)[C@H]2O)cc(F)c1N
Reply: 5.86

* * *

Each item that follows carries a reported concentration at 1 h.
- TEST NAME: Drug uptake in C57BL/6 mouse blood at 60 umol/kg, po dosed in carboxymethyl cellulose 0.5% w/v in water/Tween 80 (99.5/0.5, v/v) measured 1 hr post dosing by LC/MS/MS analysis
- Type: ADME, organism-based
- TEST PARAMETERS: read-out: Drug uptake
Write down the numeric answer in µM and omit the unit.

| MOLECULE SMILES | concentration at 1 h (µM) |
| --- | --- |
| CC(C)(C)c1cccc(CN[C@H]2CS(=O)(=O)C[C@@H](Cc3cc(F)c(N)c(OCC(F)(F)F)c3)[C@@H]2O)c1 | 4.1 |

For the next question, use this compound.
Ask: GET /values?readout=concentration at 1 h&item= CC(C)(C)c1cccc(CN[C@H]2CS(=O)(=O)C[C@@H](Cc3ccc(N)c(Br)c3)[C@@H]2O)c1
Reply: 4.07
